target: GSK3β (h) (Homo sapiens); experiment: GSK-3β human kinase inhibition, SPA; assay type: biochemical; conditions: read-out: GSK3b pIC50 (converted)
Value Type: IC50 (µM)

I = O=C1CN2CCN(CC2)Cc2cc(ccc2N2CCOCC2)Nc2nccc(n2)-c2cccc(c2)OCCCN1 [Compound 103]
II = CN1CCC(NC(=O)c2cc3cc(c2)Nc2nccc(n2)-c2cccc(c2)CNC(=O)[C@@H]2CCCN2C3)CC1 [Compound 38]
Q: Which gives the smaller IC50 number: I or II ? Give the chosen item's label as your response.
A: II
(II: 0.186 µM, I: 1.55 µM)

---

# maps each entry to its IC50
tested on: MDA-MB-231; assay: Cellular proliferation assay (Alamar blue), MDA-MB-231; format: cell-based; details: Homo sapiens, 10% FCS, 72 hours with compound, Alamar blue 24 h, read-out: MDA/MB231 (cellular proliferation assay, Table 4) (converted)

O=C1CN2CCN(CC2)Cc2cc(ccc2N2CCOCC2)Nc2nccc(n2)-c2cccc(c2)OCCCN1 [Compound 103] = > 10 µM
CN1CCN(C(=O)c2ccc3cc2CN2CCC[C@H]2C(=O)NCc2cccc(c2)-c2ccnc(n2)N3)CC1 [Compound 25] = > 10 µM
COc1cc2cc(c1)Nc1nccc(n1)-c1ccc(OC)c(c1)CN(C)CCNC(=O)CN1CCN(CC1)C2 [Compound 127] = > 10 µM
CC(C)(C)O[C@@H]1C[C@H]2C(=O)NCc3cccc(c3)-c3ccnc(n3)Nc3ccccc3CN2C1 [Compound 58] = > 10 µM
CN(C)C(=O)c1ccc2cc1CN1CCC[C@H]1C(=O)NCc1cccc(c1)-c1ccnc(n1)N2 [Compound 24] = > 10 µM

Q: Lookup: IC50 / MDA-MB-231 / COc1cc2cc(c1OC)CN1CCC[C@H]1C(=O)N(C)CCN(C)c1cc(ccn1)-c1ccnc(n1)N2 [Compound 17]
A: > 10 µM

Q: Entry to check: O=C1NCc2cccc(c2)-c2ccnc(n2)Nc2cccc(c2)CN[C@H]1CO [Compound 187]
A: 7.94 µM

Q: Entry to check: O=C1NCc2cccc(c2)-c2ccnc(n2)Nc2cc(ccc2Cl)CN2CCC1CC2 [Compound 123]
A: > 10 µM

Q: Entry to check: COc1ccc2cc1CN1CCC(CC1)C(=O)N(C)CCN(C)c1ccc(cn1)-c1ccnc(n1)N2 [Compound 4]
A: > 10 µM

Q: Entry to check: O=C1NCc2cccc(c2)-c2ccnc(n2)Nc2cc(CN3CCOCC3)cc(c2)CN2CCC[C@@H]12 [Compound 22]
A: 1.7 µM

Q: Entry to check: COc1ccc2cc1CN(C)CCNC(=O)[C@H](CO)NCc1cccc(c1)Nc1nccc-2n1 [Compound 120]
A: > 10 µM

Q: Entry to check: O=C1NCc2cccc(c2)-c2ccnc(n2)Nc2cccc(c2)CN2CCC[C@@H]12 [Compound 53]
A: > 10 µM

Q: Entry to check: COCCNCc1cc2cc(c1)Nc1nccc(n1)-c1cccc(c1)CNC(=O)[C@@H]1CCCN1C2 [Compound 33]
A: 0.832 µM

---

test system: HCT-116; experiment: Cellular proliferation assay (Alamar blue), HCT-116; format: cell-based; settings: Homo sapiens, 10% FCS, 72 hours with compound, Alamar blue 4 h
Value Type: IC50 (µM)

COc1cc2cc(c1)Nc1nccc(n1)-c1ccc(OC)c(c1)CN(C)CCCNC(=O)CN1CCN(CC1)C2 = 1.55
O=C1NCc2cccc(c2)-c2ccnc(n2)Nc2ccc(N3CCOCC3)c(c2)CN[C@H]1Cc1ccccc1 = 6.76
CN1CCCNC(=O)CN2CCN(CC2)Cc2cc(cc(N3CCOCC3)c2)Nc2nccc(n2)-c2ccc(cc2)C1 = 0.355

1 = O=C1NCCCOc2ccc(cc2)-c2ccnc(n2)Nc2ccc(N3CCOCC3)c(c2)CN2CCC[C@@H]12
2 = COCCNC(=O)c1ccc2cc1CN1CCC[C@H]1C(=O)NCc1cccc(c1)-c1ccnc(n1)N2
Q: Lab notebook, comparison: 1 versus 2 , higher IC50 goes to which? Give the chosen item's label as your response.
A: 1

A = O=C1NCc2cccc(c2)-c2ccnc(n2)Nc2cc(CN3CCOCC3)cc(c2)CN2CCC[C@@H]12
B = C[C@H]1NCc2cc(ccc2N2CCOCC2)Nc2nccc(n2)-c2cccc(c2)OCCCNC1=O
Q: Lab notebook, comparison: A versus B , higher IC50 goes to which? Give the chosen item's label as your response.
A: B

---

system: A2780; experiment: Cellular proliferation assay (Alamar blue), A2780; format: cell-based; conditions: Homo sapiens, 10% FCS, 72 hours with compound, Alamar blue 24 h, read-out: A2780 (cellular proliferation assay, Table 4) (converted)
Value Type: IC50 (µM)

Use these answered entries as a reference point.
CN1CCCNC(=O)CN2CCN(CC2)Cc2cc(Br)cc(c2)Nc2nccc(n2)-c2ccc(cc2)C1 = 3.89
CN(C)C(=O)c1ccc2cc1CN1CCC[C@H]1C(=O)NCc1cccc(c1)-c1ccnc(n1)N2 = 5.89
COCCNC(=O)c1cc2cc(c1)Nc1nccc(n1)-c1cccc(c1)CNC(=O)[C@@H]1CCCN1C2 = 6.03
O=C1NCc2cc(ccc2N2CCOCC2)Nc2nccc(n2)-c2cccc(c2)CCCN2CCC[C@@H]12 = 0.245
COc1ccc2cc1CN(C)CCCNC(=O)[C@@H]1CCCN1Cc1cc(NCCc3ccccc3)cc(c1)Nc1nccc-2n1 = 2.75

1 = O=C1NCCNc2cc(ccn2)-c2ccnc(n2)Nc2ccc(N3CCOCC3)c(c2)CN2CCCC12 (stereo not drawn)
2 = O=C1NCCCOc2cccc(c2)-c2ccnc(n2)Nc2ccc(N3CCOCC3)c(c2)CN[C@H]1CO
Q: Lab notebook, comparison: 1 versus 2 , higher IC50 goes to which? Give the chosen item's label as your response.
A: 1
(1: 9.77 µM, 2: 6.76 µM)

---

test system: HCT-116; assay: Cellular proliferation assay (Alamar blue), HCT-116; format: cell-based; settings: Homo sapiens, 10% FCS, 72 hours with compound, Alamar blue 4 h
Value Type: IC50 (µM)

Use these answered entries as a reference point.
COc1cc2cc(c1)Nc1nccc(n1)-c1ccc(cc1)CN(C)CCCNC(=O)C1CCN(CC1)C2 = 1.02
O=C1CN2CCN(CC2)Cc2cc(ccc2N2CCOCC2)Nc2nccc(n2)-c2cccc(c2)OCCN1 = 1.29
CC(C)Nc1cc2cc(c1)Nc1nccc(n1)-c1ccc(cc1)CN(C)CCCNC(=O)CN1CCN(CC1)C2 = 5.25
O=C1CN2CCN(CC2)Cc2cccc(c2)Nc2nccc(n2)-c2ccnc(c2)CCCN1 = 2.29
COc1cc2cc(c1)Nc1nccc(n1)-c1ccc(OC)c(c1)CN(C)CCCNC(=O)C1CCN(CC1)C2 = 3.09
COc1ccc2cc1CN1CCC(CC1)C(=O)N(C)CCN(C)c1ccc(cn1)-c1ccnc(n1)N2 = 5.25
O=C(NC1CCOCC1)c1ccc2cc1CN1CCC[C@H]1C(=O)NCc1cccc(c1)-c1ccnc(n1)N2 = 2.24
O=C1NCCNCc2ccc(cc2)-c2ccnc(n2)Nc2ccc(N3CCOCC3)c(c2)CN2CCC[C@@H]12 = 6.46
O=C1NCc2cccc(c2)-c2ccnc(n2)Nc2cc(CNC3CCOCC3)cc(c2)CN2CCC[C@@H]12 = 0.646

a = O=C1NCc2cccc(c2)-c2ccnc(n2)Nc2cc(cc(C(=O)N3CCOCC3)c2)CN2CCC[C@@H]12
b = C[C@@H]1NCCc2cccc(c2)-c2ccnc(n2)Nc2ccc(N3CCOCC3)c(c2)CNC1=O
c = O=C1NCc2cccc(c2)-c2ccnc(n2)Nc2cccc(c2)CN2CCC1CC2
d = O=C1CN2CCN(CC2)Cc2cc(ccc2N2CCOCC2)Nc2nccc(n2)-c2ccc(cc2)OCCN1
e = CN(C)Cc1cc2cc(c1)Nc1nccc(n1)-c1cccc(c1)CNC(=O)[C@@H]1CCCN1C2
Q: Rank by IC50 (largest to smallest). Put the labels in the order asked and list them.
A: d, a, c, b, e

---

biological target: GSK3β (h) (Homo sapiens, UniProt P49841); test: GSK-3β human kinase inhibition, SPA; assay type: biochemical; conditions: read-out: GSK3b pIC50 (converted)
Sequence (P49841 whole entry): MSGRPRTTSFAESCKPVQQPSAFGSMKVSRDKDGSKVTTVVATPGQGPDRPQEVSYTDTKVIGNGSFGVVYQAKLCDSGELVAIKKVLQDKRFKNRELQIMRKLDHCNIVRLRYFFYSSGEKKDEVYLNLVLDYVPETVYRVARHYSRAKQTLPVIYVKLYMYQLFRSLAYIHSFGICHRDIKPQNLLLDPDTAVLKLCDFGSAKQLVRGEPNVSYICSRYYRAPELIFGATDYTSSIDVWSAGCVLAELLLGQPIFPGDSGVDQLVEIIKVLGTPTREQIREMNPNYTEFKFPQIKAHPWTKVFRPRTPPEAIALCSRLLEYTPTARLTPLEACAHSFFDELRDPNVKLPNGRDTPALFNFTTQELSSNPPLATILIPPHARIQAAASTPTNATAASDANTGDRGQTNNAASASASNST
Value Type: IC50 (µM)

Use these answered entries as a reference point.
COCCNCc1cc2cc(c1)Nc1nccc(n1)-c1cccc(c1)CNC(=O)[C@@H]1CCCN1C2 [Compound 33] = 0.145
CN1CCNC(=O)[C@H](CO)NCc2cc(cc(N3CCOCC3)c2)Nc2nccc(n2)-c2ccc(cc2)C1 [Compound 108] = 6.61
O=C1NCCOc2ccc(cc2)-c2ccnc(n2)Nc2ccc(N3CCOCC3)c(c2)CN2CCC1CC2 [Compound 6] = 0.741
COc1cc2cc(c1)Nc1nccc(n1)-c1ccc(cc1)CN(C)CCCNC(=O)C1CCN(CC1)C2 [Compound 66] = 1.07

I = COc1ccc2cc1CN1CCC(CC1)C(=O)N(C)CCN(C)c1ccc(cn1)-c1ccnc(n1)N2 [Compound 4]
II = CC(C)Nc1cc2cc(c1)Nc1nccc(n1)-c1ccc(cc1)CN(C)CCNC(=O)CN1CCN(CC1)C2 [Compound 128]
III = COCCNC(=O)c1ccc2cc1CN1CCC[C@H]1C(=O)NCc1cccc(c1)-c1ccnc(n1)N2 [Compound 40]
IV = CN1CCN(C(=O)c2ccc3cc2CN2CCC[C@H]2C(=O)NCc2cccc(c2)-c2ccnc(n2)N3)CC1 [Compound 25]
Q: Rank by IC50 (largest to smallest). Put the labels in the order asked and list them.
A: I, II, III, IV
(I: 3.63 µM, II: 1.95 µM, III: 0.162 µM, IV: 0.0813 µM)
